ASSAY SYSTEM: β5c subunit of human cCP (Homo sapiens, UniProt P20618+P28074)
Construct: purchased Boston Biochem, Inc
EXPERIMENT NOTES: IC50 determination with fluorogenic substrate Ac-WLA-AMC
Format: biochemical
CONDITION NOTES: human cCP; mean of at least three experiments; NA: not active at 50 μM
Documented pIC50 across a set of molecules
Value format note: pIC50 is -log10 of concentration (mol/L); just state the number.

Fill in pIC50 for record O=C(N[C@@H](Cc1ccccc1)C(=O)N[C@@H](Cc1ccccc1)B(O)O)c1cnccn1
7.27

# return recorded pIC50 for entry O=C(N[C@@H](Cc1ccccc1)C(=O)N[C@H](B(O)O)c1ccc(-c2ccccc2)cc1)c1cnccn1
7.92

Item O=C(N[C@@H](Cc1ccccc1)C(=O)N[C@H](B(O)O)C1CCCC1)c1cnccn1 : provide pIC50
7.36

Supply reported pIC50 belonging to this molecule: CCOC(=O)c1cccc([C@H](NC(=O)[C@H](Cc2ccccc2)NC(=O)c2cnccn2)B(O)O)c1
5.48

Using the record for O=C(N[C@@H](Cc1ccccc1)C(=O)N[C@H](B(O)O)c1ccc2c(c1)OCO2)c1cnccn1 , state its measured pIC50.
6.74

Respond only with pIC50 recorded for O=C(N[C@@H](Cc1ccccc1)C(=O)N[C@H](B(O)O)C1CC1)c1cnccn1
8.30

Note down pIC50 recorded for O=C(N[C@@H](Cc1ccccc1)C(=O)N[C@H](B(O)O)c1ccc(Cl)cc1)c1cnccn1
6.94

Recall and state the measured pIC50 for CC[C@H](NC(=O)[C@H](Cc1ccccc1)NC(=O)c1cnccn1)B(O)O .
7.96
